EXPERIMENTAL SYSTEM: UniProt:P14902
Sequence (P14902 whole entry): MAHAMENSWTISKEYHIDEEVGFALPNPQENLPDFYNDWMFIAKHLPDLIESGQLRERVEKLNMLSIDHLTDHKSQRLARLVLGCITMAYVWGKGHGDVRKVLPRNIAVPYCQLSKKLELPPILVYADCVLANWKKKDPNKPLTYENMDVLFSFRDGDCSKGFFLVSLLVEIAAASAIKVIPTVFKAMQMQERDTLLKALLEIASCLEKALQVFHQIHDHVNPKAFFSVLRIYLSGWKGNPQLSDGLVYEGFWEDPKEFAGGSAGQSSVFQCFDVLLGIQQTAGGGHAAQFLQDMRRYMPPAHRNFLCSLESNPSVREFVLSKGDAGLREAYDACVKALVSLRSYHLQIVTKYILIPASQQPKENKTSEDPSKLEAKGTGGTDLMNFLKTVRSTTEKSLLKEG
ASSAY DETAILS: IDO Kynurenine Assay with Human IDO1/HEK293 Cells
COND: 20 hours incubation, kynurenine detected with Ehrlich reagent, absorbance at 490 nm, read-out: HEK Human IDO-1 IC50
ENDPOINT: IC50 (nM)
One number for each entry, in nM.

Please look at the items below and tell me IC50 for each one, in order.
1. Cc1cc(NC(=O)Nc2cc([C@@H]3C[C@@H]3C(=O)O)ccc2N(CC(C)C)CC(C)C)on1
2. Cc1cc(NC(=O)Nc2cc([C@H]3C[C@H]3C(=O)O)ccc2N(CC(C)C)C2CCCCC2)on1
3. CC(C)CN(CC(C)C)c1ccc([C@@H]2C[C@@H]2C(=O)O)cc1NC(=O)Nc1cc(C(F)(F)F)no1
4. Cc1cc(NC(=O)Nc2cc([C@@H]3C[C@@H]3C(=O)O)ccc2N(CC(C)C)CC(C)C)no1
5. Cc1ccc(NC(=O)Nc2cc([C@@H]3C[C@@H]3C(=O)O)ccc2N(CCCC(F)(F)F)C2CCCCC2)cc1
6. Cc1cc(CC(=O)Nc2cc([C@@H]3C[C@@H]3C(=O)O)ccc2N(CC(C)C)CC(C)C)on1
7. CC(C)CN(CC(C)C)c1ccc([C@H]2C[C@H]2C(=O)O)cc1NC(=O)Nc1ccc(C(F)(F)F)cc1

[4, 0.5, 7, 23, 338, 262, 941]
